Data origin, for the record: patent US9388174B2

As an illustration, consider measured IC50 for molecules on oxidase-type xanthine oxidoreductase (from buttermilk) (Bos taurus, UniProt P80457).
Sequence (P80457 whole entry): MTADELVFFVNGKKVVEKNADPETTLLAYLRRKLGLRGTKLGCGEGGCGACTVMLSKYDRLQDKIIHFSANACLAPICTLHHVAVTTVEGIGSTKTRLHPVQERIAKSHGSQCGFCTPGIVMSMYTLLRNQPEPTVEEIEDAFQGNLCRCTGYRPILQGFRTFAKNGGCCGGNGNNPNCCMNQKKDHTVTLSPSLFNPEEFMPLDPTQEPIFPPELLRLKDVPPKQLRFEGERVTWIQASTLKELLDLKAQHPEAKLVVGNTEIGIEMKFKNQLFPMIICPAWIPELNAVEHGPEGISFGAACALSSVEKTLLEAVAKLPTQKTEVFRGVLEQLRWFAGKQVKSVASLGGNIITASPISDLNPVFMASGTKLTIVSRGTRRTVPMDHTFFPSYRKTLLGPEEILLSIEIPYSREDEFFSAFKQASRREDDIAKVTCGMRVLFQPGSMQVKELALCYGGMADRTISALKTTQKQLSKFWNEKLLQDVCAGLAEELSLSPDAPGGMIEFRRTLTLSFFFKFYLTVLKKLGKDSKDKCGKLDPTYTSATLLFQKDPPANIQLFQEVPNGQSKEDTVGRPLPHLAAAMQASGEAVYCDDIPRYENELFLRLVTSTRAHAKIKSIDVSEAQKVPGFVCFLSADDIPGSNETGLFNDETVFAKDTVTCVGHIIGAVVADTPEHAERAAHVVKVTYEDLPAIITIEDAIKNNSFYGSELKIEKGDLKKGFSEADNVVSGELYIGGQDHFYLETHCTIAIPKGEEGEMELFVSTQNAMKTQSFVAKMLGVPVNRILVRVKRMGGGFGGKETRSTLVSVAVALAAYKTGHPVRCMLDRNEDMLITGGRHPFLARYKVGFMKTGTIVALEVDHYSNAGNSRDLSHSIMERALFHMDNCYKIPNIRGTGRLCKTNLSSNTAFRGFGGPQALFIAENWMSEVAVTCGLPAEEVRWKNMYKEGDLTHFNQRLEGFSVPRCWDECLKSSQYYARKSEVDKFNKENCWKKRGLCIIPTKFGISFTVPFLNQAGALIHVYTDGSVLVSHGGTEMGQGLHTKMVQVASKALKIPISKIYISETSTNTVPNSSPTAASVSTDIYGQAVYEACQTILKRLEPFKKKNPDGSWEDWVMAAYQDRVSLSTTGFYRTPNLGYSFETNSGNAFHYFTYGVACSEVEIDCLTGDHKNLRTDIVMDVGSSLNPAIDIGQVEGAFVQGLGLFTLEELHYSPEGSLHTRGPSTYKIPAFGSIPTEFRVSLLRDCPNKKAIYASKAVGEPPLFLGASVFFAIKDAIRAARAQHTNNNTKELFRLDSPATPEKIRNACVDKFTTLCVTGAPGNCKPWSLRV

Consider the molecule shown here: Cc1nc(-c2ccc(OCC(C)C)c(-n3cncn3)c2)sc1C(=O)O [compound 13] What is its recorded IC50? 1 to 5 nM

What do you have for CC(C)COc1ccc(-c2ncc(C(=O)O)s2)cc1-n1cnnn1 [compound 32] ? 1 to 5 nM

What do you have for Cc1ncn(-c2cc(-c3nc(C)c(C(=O)O)s3)ccc2OCC(C)C)n1 [compound 12] ? 1 to 5 nM

What do you have for Cc1nc(-c2ccc(OCC3CCC3)c(-n3ccnn3)c2)sc1C(=O)O [compound 19] ? 1 to 5 nM

====

As an illustration, consider measured IC50 for compounds on oxidase-type xanthine oxidoreductase (from buttermilk) (Bos taurus, UniProt P80457).

>  <SMILES_STRUCTURE>
Cc1nc(-c2ccc(OCC(C)C)c(-n3ccnc3)c2)sc1C(=O)O

>  <IC50>
1 to 5 nM

$$$$
>  <SMILES_STRUCTURE>
Cc1nc(-c2ccc(OCC(C)C)c(-n3cnc4ccccc43)c2)sc1C(=O)O

>  <IC50>
1 to 5 nM

$$$$
>  <SMILES_STRUCTURE>
Cc1nc(-c2ccc(OCC(C)(C)C)c(-n3cnnn3)c2)sc1C(=O)O

>  <IC50>
1 to 5 nM

$$$$

Param readout= IC50; system= oxidase-type xanthine oxidoreductase (from buttermilk) (Bos taurus, UniProt P80457); entry= `Cc1nc(-c2ccc(SC(C)C)c(-n3cnnn3)c2)sc1C(=O)O` ; returns value. 1 to 5 nM

What do you have for `CC(C)Oc1ccc(-c2ncc(C(=O)O)s2)cc1-n1cnnn1` ? 1 to 5 nM

What do you have for `Cc1nc(-c2ccc(N3CCCC3)c(-n3cnnn3)c2)sc1C(=O)O` ? 1 to 5 nM

====

# SYSTEM_TESTED: oxidase-type xanthine oxidoreductase (from buttermilk) (Bos taurus, UniProt P80457)
READOUT_KIND: IC50

Some entries whose results are on file:
>  <SMILES_STRUCTURE>
Cc1nc(-c2ccc(OC(C)C)c(-n3ccnn3)c2)sc1C(=O)O

>  <SYSTEM_TESTED>
oxidase-type xanthine oxidoreductase (from buttermilk) (Bos taurus, UniProt P80457)

>  <READOUT_KIND>
IC50

>  <MEASURED_VALUE>
1 to 5 nM

$$$$
>  <SMILES_STRUCTURE>
CCN(CC)c1ccc(-c2nc(C)c(C(=O)O)s2)cc1-n1cnnn1

>  <SYSTEM_TESTED>
oxidase-type xanthine oxidoreductase (from buttermilk) (Bos taurus, UniProt P80457)

>  <READOUT_KIND>
IC50

>  <MEASURED_VALUE>
1 to 5 nM

$$$$
>  <SMILES_STRUCTURE>
Cc1cc(F)ccc1Oc1ccc(-c2nc(C)c(C(=O)O)s2)cc1-n1cnnn1

>  <SYSTEM_TESTED>
oxidase-type xanthine oxidoreductase (from buttermilk) (Bos taurus, UniProt P80457)

>  <READOUT_KIND>
IC50

>  <MEASURED_VALUE>
1 to 5 nM

$$$$
>  <SMILES_STRUCTURE>
Cc1nc(-c2ccc(OCC3CCCC3)c(-n3ccnc3)c2)sc1C(=O)O

>  <SYSTEM_TESTED>
oxidase-type xanthine oxidoreductase (from buttermilk) (Bos taurus, UniProt P80457)

>  <READOUT_KIND>
IC50

>  <MEASURED_VALUE>
5 to 10 nM

$$$$

Consider the compound shown here: `CC(C)Oc1ccc(-c2ncc(C(=O)O)s2)cc1-n1ccnn1` What is its recorded IC50? 1 to 5 nM

What do you have for `Cc1nc(-c2ccc(OC(C)C)c(-n3cnnn3)c2)sc1C(=O)O` ? 1 to 5 nM

What do you have for `Cc1nc(-c2ccc(OCC(C)C)c(-n3ncnc3C)c2)sc1C(=O)O` ? 1 to 5 nM

What do you have for `Cc1nc(-c2ccc(Oc3ccccc3Cl)c(-n3cnnn3)c2)sc1C(=O)O` ? 1 to 5 nM

What do you have for `Cc1nc(-c2ccc(OCC(C)(C)O)c(-n3cnnn3)c2)sc1C(=O)O` ? 1 to 5 nM
